- assayMethodText: Half life in ICR mouse at 2 mg/kg, iv measured up to 24 hrs
- Type: ADME, organism-based
- conditionNotes: in vivo
measuredQuantity: half-life (h)
One number for each entry, in h.

Entry Cc1n[nH]c2ccc(-c3cc(N[C@@H](CO)c4ccccc4)cnc3Cl)cc12 ; half-life = 1.81

###

- testedSystem: Fibroblast growth factor receptor 1 (Homo sapiens, UniProt P11362)
- Sequence (P11362 whole entry): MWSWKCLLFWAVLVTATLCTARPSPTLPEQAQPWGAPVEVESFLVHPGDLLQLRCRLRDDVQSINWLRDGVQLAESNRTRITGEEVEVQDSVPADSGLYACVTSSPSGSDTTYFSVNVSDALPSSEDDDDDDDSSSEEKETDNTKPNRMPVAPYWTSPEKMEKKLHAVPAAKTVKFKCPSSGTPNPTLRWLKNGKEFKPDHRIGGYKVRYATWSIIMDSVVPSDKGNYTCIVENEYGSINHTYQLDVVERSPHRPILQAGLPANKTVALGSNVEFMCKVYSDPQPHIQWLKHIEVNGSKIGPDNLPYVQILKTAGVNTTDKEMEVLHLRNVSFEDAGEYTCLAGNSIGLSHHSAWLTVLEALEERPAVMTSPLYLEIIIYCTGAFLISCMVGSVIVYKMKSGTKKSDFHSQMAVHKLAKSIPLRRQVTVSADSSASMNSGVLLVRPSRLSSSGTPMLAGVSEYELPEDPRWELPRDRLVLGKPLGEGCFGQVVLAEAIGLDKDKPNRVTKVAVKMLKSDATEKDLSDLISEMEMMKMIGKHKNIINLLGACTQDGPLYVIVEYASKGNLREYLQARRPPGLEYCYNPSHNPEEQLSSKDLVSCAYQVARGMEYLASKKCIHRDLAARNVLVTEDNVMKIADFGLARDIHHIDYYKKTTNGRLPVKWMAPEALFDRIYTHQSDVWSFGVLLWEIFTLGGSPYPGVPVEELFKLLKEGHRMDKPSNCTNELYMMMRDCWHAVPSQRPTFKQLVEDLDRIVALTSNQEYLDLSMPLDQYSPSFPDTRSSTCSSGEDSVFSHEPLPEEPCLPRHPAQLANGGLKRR
measuredQuantity: IC50

Notebook: Cc1n[nH]c2ccc(-c3cc(N[C@@H](CO)c4ccccc4)cnc3Cl)cc12 , IC50 read as > 1000 nM

###

- testedSystem: Insulin receptor (Homo sapiens, UniProt P06213)
- Sequence (P06213 28-758 limits assumed): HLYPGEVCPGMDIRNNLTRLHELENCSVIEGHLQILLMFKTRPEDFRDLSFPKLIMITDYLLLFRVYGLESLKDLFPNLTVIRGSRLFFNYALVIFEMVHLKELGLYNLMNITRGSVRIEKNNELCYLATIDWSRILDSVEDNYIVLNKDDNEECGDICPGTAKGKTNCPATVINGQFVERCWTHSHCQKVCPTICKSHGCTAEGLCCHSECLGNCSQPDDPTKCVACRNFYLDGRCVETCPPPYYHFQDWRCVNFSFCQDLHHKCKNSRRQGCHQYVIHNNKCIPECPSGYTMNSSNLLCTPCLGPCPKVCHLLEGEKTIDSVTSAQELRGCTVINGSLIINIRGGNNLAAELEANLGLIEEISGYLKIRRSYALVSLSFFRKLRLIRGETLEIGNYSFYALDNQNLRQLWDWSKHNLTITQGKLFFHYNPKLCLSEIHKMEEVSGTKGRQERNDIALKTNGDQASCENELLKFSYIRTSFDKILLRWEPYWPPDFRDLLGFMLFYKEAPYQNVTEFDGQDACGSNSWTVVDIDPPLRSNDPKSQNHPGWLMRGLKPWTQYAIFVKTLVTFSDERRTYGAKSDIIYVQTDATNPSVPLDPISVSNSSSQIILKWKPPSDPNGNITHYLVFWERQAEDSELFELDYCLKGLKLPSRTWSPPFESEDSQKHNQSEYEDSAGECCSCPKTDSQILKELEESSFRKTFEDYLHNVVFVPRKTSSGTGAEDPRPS
- Sequence (P06213 763-1382 limits assumed): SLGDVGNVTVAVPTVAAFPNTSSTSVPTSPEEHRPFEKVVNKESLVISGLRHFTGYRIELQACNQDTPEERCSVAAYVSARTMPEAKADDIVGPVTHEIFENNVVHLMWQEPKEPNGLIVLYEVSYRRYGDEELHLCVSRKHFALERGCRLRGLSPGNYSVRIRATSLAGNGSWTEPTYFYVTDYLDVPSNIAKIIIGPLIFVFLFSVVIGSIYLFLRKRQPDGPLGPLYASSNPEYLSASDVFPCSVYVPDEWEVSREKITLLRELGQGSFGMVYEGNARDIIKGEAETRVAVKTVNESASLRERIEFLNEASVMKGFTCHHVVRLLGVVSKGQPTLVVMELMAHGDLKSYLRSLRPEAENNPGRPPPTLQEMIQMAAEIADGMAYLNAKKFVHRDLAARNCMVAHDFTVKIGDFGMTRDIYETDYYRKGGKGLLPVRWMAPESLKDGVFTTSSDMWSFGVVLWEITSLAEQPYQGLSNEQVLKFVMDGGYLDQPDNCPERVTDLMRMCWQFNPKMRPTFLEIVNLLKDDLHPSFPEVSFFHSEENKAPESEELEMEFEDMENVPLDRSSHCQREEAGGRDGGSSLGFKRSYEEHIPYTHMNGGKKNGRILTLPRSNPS
measuredQuantity: IC50

Lab book: IC50 of Cc1n[nH]c2ccc(-c3cc(N[C@@H](CO)c4ccccc4)cnc3Cl)cc12 noted as > 1000 nM
